Readings of growth for the listed compounds
System: NCI-H226 lung
Assay: NCI-60 one-dose screen, 48 h (100 = growth as untreated, 0 = no growth, -100 = all killed)
Details: 10 µM unless noted
Compounds without any hit were thinned out: in the full panel of roughly 83,000, 20% have a hit.

{"compound": "NS(=O)(=O)c1ccc(NC(=O)/C(=C\\c2ccc(Cl)cc2Cl)NC(=O)c2ccccc2)cc1", "growth (%)": 103}
{"compound": "CN(Cc1cc(Br)cc(Br)c1O)Cc1cc(Br)cc(Br)c1O", "growth (%)": 52}
{"compound": "CCS/C(Nc1ccccc1)=C(\\C#N)C(=O)Nc1ccc(OC)cc1", "growth (%)": 57.9}
{"compound": "Cc1ccc2nc(NC(=O)CSc3nc(-c4ccccc4)c(C#N)c4nnnn34)sc2c1", "growth (%)": 94.7}
{"compound": "Cc1[nH]c(C2CC(c3ccc(C(F)(F)F)c(F)c3)=NN2c2ccccc2)c(C)c1C(=O)NCC(F)(F)F (stereo not drawn)", "growth (%)": 77.2}
{"compound": "COC(=O)CCC/C=C\\C[C@H]1C=CC(=O)/C1=C/C[C@@H](O)C/C=C\\CC(F)(F)F", "growth (%)": -48}
{"compound": "C[C@@H]1O[C@@H](O[C@@H]2C[C@H](c3ccc4c(c3O)C(=O)C3=C(C4=O)[C@@]4(O)C(=O)C[C@](C)(O)C[C@@]4(O)C=C3)O[C@H](C)[C@H]2O)CC[C@@H]1O[C@H]1C[C@@H](O)[C@H](O)[C@@H](C)O1", "growth (%)": 116}
{"compound": "CCCCCCCCCCCCCCCCCCOc1ccccc1CC(=O)NCC[N+]1(C)CCCCC1", "growth (%)": 74.2}
